Data provenance: the supplement of paper PMC9170038

tested on: MS2 coat protein; assay: apparent KD of MS2 coat protein; higher = weaker reporter binding; details: Eterna round: R107; input ligand: none
Value Type: apparent KD of MS2 coat protein (nM)
Kindly answer with a numeric value in nM, unit omitted.

GGACCAUGGAGCGAUACCAGCUUGAGUGUGCUGGCCAGGCACAUGAGGAUCACCCAUGUAAGCCCUUGGCAGCGCUCCAUGGUCC [#1 Exclusion - Theophylline B Attempt #26 (HarryS)]; 8.39
UACAUGAGGAUCACCCAUGUCGGCAGGGAAGGAGCGGCAAUAAAGCCAGGUAGGUCGCCCAUUAGUAUUUAUAAAUAAAUAUCCA [Same State - Arginine A]; 90
UCGCGAUAGAGAAGGAGCGUCAACACCACAGAACAUGAGGAUCACCCAUGUGUUACUUUUAGACAGGUAGGUCGCUCUAGCGCUU [JR_Nu_ExcArginiB_Sub028]; 12.2
AUCCCGUGAGCGGCCGCCACUGGAGGCUUUGCGCGACAUGAGGAUCACCCAUGUGUGCCCGGCGUUAGGACCGGGUUCGCGUGGA [#1 Same State - Tryptophan B Attempt #17 (HarryS)]; 25.6
UGACAUUGCUCAGAUACCAGACAUGAGCAUCAGCCAUGUGCCAACAAGUACAAAAUAAAUGUCCCUUGGCAGCUGAGCAAUGUCU [TheoBX 23 #MS2Left #AlternativeMS2 #Theo22]; 10.9

apparent KD of MS2 coat protein for UGUAUGGACUGAAGGAGCGCCUCAAAAUAGCUUGAGGAUCACCCAAGUAAGGCGAAAGCCGGGCAGGUAGGUCGCAGUCCAUACU [ArgBX 3] ?
14.3
